Exercise: state measured MIC50 for each of the compounds provided.
# Tested on: Escherichia coli
# METHOD: Antimicrobial activity against Escherichia coli ATCC 25922 assessed as microbial growth inhibition incubated for 18 hrs
# Assay type: functional
Note: unit mg/L is implicit; provide only the numeric part.

input: I am curious: what MIC50 value has been reported for CO[C@@]1(NC(=O)Cn2cc(CCC(C)C)nn2)C(=O)N2C(C(=O)O)=C(CSc3nnnn3C)CS[C@@H]21 ?
output: 32

input: Also need CO[C@@]1(NC(=O)Cn2cc(-c3cccc(F)c3)nn2)C(=O)N2C(C(=O)O)=C(CSc3nnnn3C)CS[C@@H]21 , thanks.
output: 32

input: Also need CO[C@@]1(NC(=O)C2SC(=C(C(N)=O)C(=O)O)S2)C(=O)N2C(C(=O)O)=C(CSc3nnnn3C)CS[C@@H]21 (stereo not given in full) , thanks.
output: 4

input: Also need CO[C@@]1(NC(=O)Cn2cc(-c3ccc(C#N)cc3)nn2)C(=O)N2C(C(=O)O)=C(CSc3nnnn3C)CS[C@@H]21 , thanks.
output: 32

input: Also need CO[C@@]1(NC(=O)Cn2cc(C(=O)O)nn2)C(=O)N2C(C(=O)O)=C(CSc3nnnn3C)CS[C@@H]21 , thanks.
output: 16

input: Also need CO[C@@]1(NC(=O)Cn2cc(CO)nn2)C(=O)N2C(C(=O)O)=C(CSc3nnnn3C)CS[C@@H]21 , thanks.
output: 16

input: Also need CO[C@@]1(NC(=O)Cn2cc(-c3cccc4ccccc34)nn2)C(=O)N2C(C(=O)O)=C(CSc3nnnn3C)CS[C@@H]21 , thanks.
output: 32

input: Also need CO[C@@]1(NC(=O)Cn2cc(-c3ccccc3)nn2)C(=O)N2C(C(=O)O)=C(CSc3nnnn3C)CS[C@@H]21 , thanks.
output: 32

input: Also need CO[C@@]1(NC(=O)Cn2cc(-c3cccc(C(=O)O)c3)nn2)C(=O)N2C(C(=O)O)=C(CSc3nnnn3C)CS[C@@H]21 , thanks.
output: 8

input: Also need CO[C@@]1(NC(=O)Cn2cc(C3CCCCC3)nn2)C(=O)N2C(C(=O)O)=C(CSc3nnnn3C)CS[C@@H]21 , thanks.
output: 32

input: Also need COc1ccc(-c2cn(CC(=O)N[C@]3(OC)C(=O)N4C(C(=O)O)=C(CSc5nnnn5C)CS[C@@H]43)nn2)cc1 , thanks.
output: 32

input: Also need CO[C@@]1(NC(=O)Cn2cc(C(C)(C)O)nn2)C(=O)N2C(C(=O)O)=C(CSc3nnnn3C)CS[C@@H]21 , thanks.
output: 32

input: Also need CO[C@@]1(NC(=O)Cn2cc(-c3ccc(C(=O)O)cc3)nn2)C(=O)N2C(C(=O)O)=C(CSc3nnnn3C)CS[C@@H]21 , thanks.
output: 32

###

# METHOD: Cytotoxicity against HEK293 cells incubated for 20 hrs by resazurin dye based assay
# Format: toxicity, cell-based
# APPLIED_CONDITIONS: human
Exercise: state measured CC50 at 20 h for each of the compounds provided.

input: I am curious: what CC50 at 20 h value has been reported for CO[C@@]1(NC(=O)Cn2cc(-c3ccccc3)nn2)C(=O)N2C(C(=O)O)=C(CSc3nnnn3C)CS[C@@H]21 ?
output: > 32 µg/mL

input: Also need CO[C@@]1(NC(=O)Cn2cc(-c3ccc(C(=O)O)cc3)nn2)C(=O)N2C(C(=O)O)=C(CSc3nnnn3C)CS[C@@H]21 , thanks.
output: > 32 µg/mL

input: Also need CO[C@@]1(NC(=O)Cn2cc(-c3ccc(C#N)cc3)nn2)C(=O)N2C(C(=O)O)=C(CSc3nnnn3C)CS[C@@H]21 , thanks.
output: > 32 µg/mL

input: Also need CO[C@@]1(NC(=O)Cn2cc(C(C)(C)O)nn2)C(=O)N2C(C(=O)O)=C(CSc3nnnn3C)CS[C@@H]21 , thanks.
output: 0.7 µg/mL

input: Also need CO[C@@]1(NC(=O)C2SC(=C(C(N)=O)C(=O)O)S2)C(=O)N2C(C(=O)O)=C(CSc3nnnn3C)CS[C@@H]21 (stereo not given in full) [CEFOTETAN] , thanks.
output: > 32 µg/mL

input: Also need COc1ccc(-c2cn(CC(=O)N[C@]3(OC)C(=O)N4C(C(=O)O)=C(CSc5nnnn5C)CS[C@@H]43)nn2)cc1 , thanks.
output: > 32 µg/mL

input: Also need CO[C@@]1(NC(=O)Cn2cc(-c3cccc4ccccc34)nn2)C(=O)N2C(C(=O)O)=C(CSc3nnnn3C)CS[C@@H]21 , thanks.
output: > 32 µg/mL

input: Also need CO[C@@]1(NC(=O)Cn2cc(-c3cccc(F)c3)nn2)C(=O)N2C(C(=O)O)=C(CSc3nnnn3C)CS[C@@H]21 , thanks.
output: 13.2 µg/mL

input: Also need CO[C@@]1(NC(=O)Cn2cc(-c3ccc4ccccc4c3)nn2)C(=O)N2C(C(=O)O)=C(CSc3nnnn3C)CS[C@@H]21 , thanks.
output: > 32 µg/mL

input: Also need CO[C@@]1(NC(=O)Cn2cc(-c3cccc(C(=O)O)c3)nn2)C(=O)N2C(C(=O)O)=C(CSc3nnnn3C)CS[C@@H]21 , thanks.
output: > 32 µg/mL

input: Also need CO[C@@]1(NC(=O)Cn2cc(C3CCCCC3)nn2)C(=O)N2C(C(=O)O)=C(CSc3nnnn3C)CS[C@@H]21 , thanks.
output: > 32 µg/mL

input: Also need CO[C@@]1(NC(=O)Cn2cc(CCC(C)C)nn2)C(=O)N2C(C(=O)O)=C(CSc3nnnn3C)CS[C@@H]21 , thanks.
output: 16.1 µg/mL

input: Also need CO[C@@]1(NC(=O)Cn2cc(CO)nn2)C(=O)N2C(C(=O)O)=C(CSc3nnnn3C)CS[C@@H]21 , thanks.
output: > 32 µg/mL

input: Also need CO[C@@]1(NC(=O)Cn2cc(-c3cccc4cccnc34)nn2)C(=O)N2C(C(=O)O)=C(CSc3nnnn3C)CS[C@@H]21 , thanks.
output: > 32 µg/mL

input: Also need CO[C@@]1(NC(=O)Cn2cc(C(=O)O)nn2)C(=O)N2C(C(=O)O)=C(CSc3nnnn3C)CS[C@@H]21 , thanks.
output: > 32 µg/mL

###

# System: Clostridioides difficile
# METHOD: Anti-sporulation activity against Clostridium difficile M7404 assessed as fold reduction in spore count incubated overnight by absorbance based assay relative to control
# Type: functional
EXPERIMENTAL_READOUT: fold change (FC)

input: I am curious: what fold change (FC) value has been reported for CO[C@@]1(NC(=O)Cn2cc(-c3cccc(F)c3)nn2)C(=O)N2C(C(=O)O)=C(CSc3nnnn3C)CS[C@@H]21 ?
output: 1000

input: Also need CO[C@@]1(NC(=O)C2SC(=C(C(N)=O)C(=O)O)S2)C(=O)N2C(C(=O)O)=C(CSc3nnnn3C)CS[C@@H]21 (some centres undefined) , thanks.
output: 10000

input: Also need CO[C@@]1(NC(=O)Cn2cc(-c3ccc4ccccc4c3)nn2)C(=O)N2C(C(=O)O)=C(CSc3nnnn3C)CS[C@@H]21 , thanks.
output: >100000

input: Also need COc1ccc(-c2cn(CC(=O)N[C@]3(OC)C(=O)N4C(C(=O)O)=C(CSc5nnnn5C)CS[C@@H]43)nn2)cc1 , thanks.
output: 100

From: ChEMBL document CHEMBL5532659
